Cited source: the supplement of paper PMC7380943

system: CLZ3 (HCA2 human fibroblast dual HR-NHEJ reporter); assay: HR repair efficiency (tdTomato+ cells) relative to control (log10 fold); higher = more homologous recombination; conditions: 5 µM; doxycycline 0.5 ug/mL
Where a name gives a salt, the structure may show the parent alone.
property label: HR repair efficiency (log10)
Give bare numbers.

Worked examples, 2 molecules total:
[[record]]
molecule = "Oc1cc(O)c2c(c1)O[C@H](c1ccc(O)c(O)c1)[C@H](O)C2 [Epicatechin (EC)]"
endpoint_result = -0.306

[[record]]
molecule = "CN1Cc2c(ccc3c2OCO3)[C@@]2(C)[C@@H](O)Cc3cc4c(cc3[C@@H]12)OCO4 [Corynoline]"
endpoint_result = -0.201


Count: 5. Required value per item: HR repair efficiency (log10).
1. Cc1nc(C)c(C)nc1C [Ligustrazine hydrochloride]
2. CC(C)=CCC[C@](C)(O[C@@H]1O[C@H](CO[C@@H]2O[C@@H](CO)[C@H](O)[C@H]2O)[C@@H](O)[C@H](O)[C@H]1O)[C@H]1CC[C@]2(C)[C@@H]1[C@H](O)C[C@@H]1[C@@]3(C)CC[C@H](O[C@@H]4O[C@H](CO)[C@@H](O)[C@H](O)[C@H]4O[C@@H]4O[C@H](CO)[C@@H](O)[C@H](O)[C@H]4O)C(C)(C)[C@@H]3CC[C@]12C [Ginsenoside Rc]
3. COc1cccc(OC)c1C(=O)OCc1cc(O)ccc1O[C@@H]1O[C@H](CO)[C@@H](O)[C@H](O)[C@H]1O [Curculigoside]
4. CC1(C)CC[C@]2(C(=O)O)CC[C@]3(C)C(=CC[C@@H]4[C@@]5(C)CC[C@H](O)C(C)(C)[C@@H]5CC[C@]43C)[C@@H]2C1 [Oleanolic Acid]
5. COC(=O)[C@@]1(C)CC[C@]2(C(=O)O)CC[C@]3(C)C(=CC[C@@H]4[C@@]5(C)C[C@H](O)[C@H](O)[C@@](C)(CO)[C@@H]5CC[C@]43C)[C@@H]2C1 [Phytolaccagenin]

A)
0.079
0.0964
0.0401
0.133
0.0241

###

Can you tell me NHEJ repair efficiency (log10) for the items I'm about to list?
test system: CLZ3 (HCA2 human fibroblast dual HR-NHEJ reporter); assay: NHEJ repair efficiency (GFP+ cells) relative to control (log10 fold); higher = more non-homologous end joining; conditions: 5 µM; doxycycline 0.5 ug/mL
One number for each entry.

Past entries and their recorded results:
[[record]]
compound = "CCOC(=O)/C=C/c1ccc(O)c(O)c1 [Ethyl Caffeate]"
property_label = "NHEJ repair efficiency (log10)"
endpoint_result = 0.0562

[[record]]
compound = "COc1c2ccoc2cc2oc(=O)ccc12"
property_label = "NHEJ repair efficiency (log10)"
endpoint_result = -0.153

[[record]]
compound = "CC[C@H](/C=C/[C@@H](C)[C@H]1CC[C@H]2[C@@H]3CC=C4C[C@@H](O)CC[C@]4(C)[C@H]3CC[C@]12C)C(C)C"
property_label = "NHEJ repair efficiency (log10)"
endpoint_result = -0.155

[[record]]
compound = "Cc1cc(O)c2c(c1)C(=O)c1cc(O)cc(O)c1C2=O"
property_label = "NHEJ repair efficiency (log10)"
endpoint_result = -0.0237


Q) Short answer please: NHEJ repair efficiency (log10), CLZ3 (HCA2 human fibroblast dual HR-NHEJ reporter), entry COc1cc2oc(=O)ccc2c(OC)c1C[C@@H](O)C(C)(C)O
A) 0.0484
